Tested on: TC71 (human ESFT cell line)
Assay: IC50 activity in TC71 cells
Format: cell-based
Settings: Homo sapiens, TC-71, TC71 cells
pIC50: −log10 of the molar value.
recordedMetric: pIC50

compound	pIC50
O=C(CC1(O)C(=O)Nc2c(Cl)ccc(Cl)c21)c1ccc(C(F)(F)F)cc1 (stereo not shown)	5.16
COc1ccc(C(=O)/C=C2/C(=O)Nc3c(Cl)ccc(Cl)c32)cc1	5.87
COc1ccc(C(=O)CC2(O)C(=O)Nc3c(Cl)ccc(Cl)c32)c(OC)c1OC (stereo not shown)	5.35

A. CSc1ccc(C(=O)CC2(O)C(=O)Nc3c(Cl)ccc(Cl)c32)cc1 (stereo not shown)
B. CCOc1ccc(C(=O)/C=C2\C(=O)Nc3c(Cl)ccc(Cl)c32)cc1
C. O=C(CC1(O)C(=O)Nc2c(Cl)ccc(Cl)c21)c1ccc(Br)cc1 (stereo not shown)
Please put the entries in order of rising pIC50. # output: labels, in the requested order C, B, A

A. COc1ccc(C(=O)CC2(OC)C(=O)N(C)c3c(Cl)ccc(Cl)c32)cc1 (stereo not shown)
B. CN(C)c1ccc(C(=O)CC2(O)C(=O)Nc3c(Cl)ccc(Cl)c32)cc1 (stereo not shown)
Endpoint returns the identifier whose pIC50 is numerically larger, either A or B . Please reply using the label of the selected record. B

* * *

Test system: TC71 (human ESFT cell line)
Assay: IC50 activity in TC71 cells
Assay type: cell-based
Settings: Homo sapiens, TC-71, TC71 cells
recordedMetric: IC50 (µM)

Consider the reported IC50 for these compounds:
compound	IC50 [µM]
O=C(CC1(O)C(=O)Nc2c(Cl)ccc(Cl)c21)c1ccc([N+](=O)[O-])cc1 (stereo not shown) [YK-4-286]	9.15
COc1ccc(C(=O)/C=C2\C(=O)Nc3c(Cl)ccc(Cl)c32)c(OC)c1OC [PT-1-41]	2.14
O=C(CC1(O)C(=O)Nc2c(Cl)ccc(Cl)c21)c1ccc(Cl)c(Cl)c1Cl (stereo not shown) [YK-4-288]	9.35
O=C(CC1(O)C(=O)Nc2c(Cl)ccc(Cl)c21)c1ccc(Cl)c(Cl)c1 (stereo not shown) [YK-4-287]	15.8
Cc1ccc(C(=O)CC2(O)C(=O)Nc3c(Cl)ccc(Cl)c32)cc1 (stereo not shown) [YK-4-280]	30.1

A. COc1ccc(C(=O)/C=C2\C(=O)Nc3c(Cl)ccc(Cl)c32)cc1 [PT-1-33]
B. O=C(CC1(O)C(=O)Nc2c(Cl)ccc(Cl)c21)c1ccc(Cl)cc1 (stereo not shown) [YK-4-275]
C. N#Cc1ccc(C(=O)CC2(O)C(=O)Nc3c(Cl)ccc(Cl)c32)cc1 (stereo not shown) [PT-1-11]
Highest IC50 first, then in falling order down to the smallest. The labels, placed in the requested order, form the answer. B, C, A
